Experiment: Caco-2 monolayer transport (bioavailability) study, AB and BA directions
Assay type: in vitro ADME, Homo sapiens
Conditions: human, Caco-2; apical to basolateral, S1 (15 mg/mL GSE)
The reader will find reported Papp A→B at 180 min, 15 mg/mL values listed item by item below.
ASSAY_READOUT: Papp A→B at 180 min, 15 mg/mL (×10⁻⁶ cm/s)

1) O=C(O)c1cc(O)c(O)c(O)c1 : 1690
2) O=c1c(O[C@@H]2O[C@H](CO)[C@@H](O)[C@H](O)[C@H]2O)c(-c2ccc(O)cc2)oc2cc(O)cc(O)c12 [K3G, kaempferol-3-glucoside] : 1160
3) O=C(/C=C/c1ccc(O)c(O)c1)O[C@@H](C(=O)O)[C@@H](O)C(=O)O : 74

----------
Consider the following compounds and their measured Basolateral Side 0 min readings.
Test system: Caco-2 cell monolayer
Experiment: Caco-2 monolayer transport (bioavailability) study, AB and BA directions
Format: in vitro ADME, Homo sapiens
Details: BA experiment, donor side, S1 (15 mg/mL GSE), 0 min
Marks after values point to notes of the source that are not given here.
ASSAY_READOUT: Basolateral Side 0 min

1) COc1cc(C(=O)O)cc(OC)c1O : 0.84 ± 0.08 ^a mg/L
2) O=c1c(O[C@@H]2O[C@H](CO)[C@@H](O)[C@H](O)[C@H]2O)c(-c2ccc(O)c(O)c2)oc2cc(O)cc(O)c12 [Q3G, quercetin-3-glucoside] : 0.28 ± 0.02 ^a mg/L
3) OC[C@H]1O[C@@H](Oc2cc3c(O)cc(O)cc3[o+]c2-c2cc(O)c(O)c(O)c2)[C@H](O)[C@@H](O)[C@@H]1O [D3G, delphinidin-3-O-glucoside] : 2.7 ± 0.2 ^a mg/L
4) O=C(O)c1cc(O)c(O)c(O)c1 : 6.9 ± 0.3 ^a mg/L
5) COc1cc(-c2[o+]c3cc(O)cc(O)c3cc2O[C@@H]2O[C@H](CO)[C@@H](O)[C@H](O)[C@H]2O)cc(OC)c1O [M3G, malvidin-3-O-glucoside] : 10.4 ± 0.7 ^a mg/L
6) O=C(/C=C/c1ccc(O)c(O)c1)O[C@@H](C(=O)O)[C@@H](O)C(=O)O : 1.04 ± 0.03 ^a mg/L
7) O=c1c(O[C@@H]2O[C@H](CO)[C@@H](O)[C@H](O)[C@H]2O)c(-c2ccc(O)cc2)oc2cc(O)cc(O)c12 [K3G, kaempferol-3-glucoside] : 7.6 ± 0.2 ^a mg/L
8) COc1cc(-c2[o+]c3cc(O)cc(O)c3cc2O[C@@H]2O[C@H](CO)[C@@H](O)[C@H](O)[C@H]2O)cc(O)c1O [Pet3G, petunidin-3-O-glucoside] : 4.3 ± 0.1 ^a mg/L

----------
System: Caco-2 cell monolayer
Test: Caco-2 monolayer transport (bioavailability) study, AB and BA directions
Type: in vitro ADME, Homo sapiens
Conditions: AB experiment, acceptor side, S2 (22 mg/mL GSE), 115 min
Marks after values point to notes of the source that are not given here.
ASSAY_READOUT: Basolateral Side 115 min

1. O=c1c(O[C@@H]2O[C@H](CO)[C@@H](O)[C@H](O)[C@H]2O)c(-c2ccc(O)cc2)oc2cc(O)cc(O)c12 [K3G, kaempferol-3-glucoside] : 7.2 ± 0.2 ^d,c mg/L
2. COc1cc(-c2[o+]c3cc(O)cc(O)c3cc2O[C@@H]2O[C@H](CO)[C@@H](O)[C@H](O)[C@H]2O)cc(OC)c1O [M3G, malvidin-3-O-glucoside] : 0.14 ± 0.01 ^d,c mg/L
3. O=C(/C=C/c1ccc(O)c(O)c1)O[C@@H](C(=O)O)[C@@H](O)C(=O)O [CA, caftaric acid] : 0.08 ± 0.01 ^b mg/L
4. O=C(O)c1cc(O)c(O)c(O)c1 [GA, gallic acid] : 9.1 ± 0.9 ^b mg/L
